Value source: ChEMBL document CHEMBL1833830

Reported solubility values for a set of compounds
Test: Solubility of the compound in 0.1% DMSO after overnight incubation by UV spectrometric analysis
Format: physicochemical
Observable: solubility

INSERT INTO results (structure_smiles_string, value_observed) VALUES
  ('Cc1cc(C)cc(Cc2cc(Br)ccc2OCCn2ccc(=O)[nH]c2=O)c1', '1.2 µM'),
  ('O=C(c1cc(Cl)cc(Cl)c1)c1cc(Br)ccc1OCCn1ccc(=O)[nH]c1=O', '0.2 µM'),
  ('Cc1cc(C)cc(Cc2cc(Cl)ccc2OCCn2ccc(=O)[nH]c2=O)c1', '0.9 µM'),
  ('Cc1cc(C)cc(C(=O)c2cc(Br)ccc2OCCn2ccc(=O)[nH]c2=O)c1', '1.8 µM'),
  ('O=C(c1cc(Cl)cc(Cl)c1)c1cc(Cl)ccc1OCCn1ccc(=O)[nH]c1=O', '1.9 µM');
